Tested on: Fibroblast
Assay: Incucyte cell viability with human fibroblast; note: filed as whole numbers so only -1 and 0 and 1 occur
Format: toxicity, cell-based
Conditions: 12 h, 10 µM, compound concentration 10 uM, replicate number 1, timepoint 12 hours
Measured Growth Rate values are reported for all entries that follow.
Just the number, please, no unit attached.

Previously resolved entries follow.
Return Growth Rate for the following molecule: Cc1c[nH]c2nccc(Oc3c(F)cc(Nc4cc(Cl)nc(N)n4)cc3F)c12 0

Return Growth Rate for the following molecule: COc1ccc(S(=O)(=O)N2c3ccc(Cl)cc3[C@](O)(c3ccccc3Cl)[C@@H]2C(=O)N2CCC[C@H]2C(N)=O)cc1OC 0

Return Growth Rate for the following molecule: CC(C)N(CCCNC(=O)Nc1ccc(C(C)(C)C)cc1)C[C@H]1O[C@@H](n2cc(Br)c3c(N)ncnc32)[C@H](O)[C@@H]1O 1

Return Growth Rate for the following molecule: Cc1cc(C)c(-n2ccn3nc(-c4cccnc4)cc23)cc1NC(=O)c1cc(C#N)cc(S(F)(F)(F)(F)F)c1 1

***
Return Growth Rate for the following molecule: O[C@H]1CC[C@H](Nc2ncc3nc(Nc4c(F)cc(F)cc4F)n([C@H]4CCOC4)c3n2)CC1 1

Return Growth Rate for the following molecule: CN(c1ccccc1CNc1nc(Nc2ccc3c(c2)CC(=O)N3)ncc1C(F)(F)F)S(C)(=O)=O 1

Return Growth Rate for the following molecule: COC(=O)C1=C(C)NC(C)=C(C(=O)OCCCN2CCC(c3ccccc3)(c3ccccc3)CC2)[C@H]1c1cccc([N+](=O)[O-])c1 0

###

Test system: U2OS
Assay: Multiplex assay against U2OS
Type: toxicity, cell-based
Conditions: human, 12 h, 10 µM, compound concentration 10 uM, replicate 2
PROPERTY_MEASURED: Population Pyknosed Nuclei (%)
Give the value in % but do not write % after it.

Previously resolved entries follow.
Return Population Pyknosed Nuclei (%) for the following compound: Cc1cccc(CN2CCN(C(c3ccccc3)c3ccc(Cl)cc3)CC2)c1.Cl.Cl (stereo unspecified) 13

Return Population Pyknosed Nuclei (%) for the following compound: Cc1c[nH]c2nccc(Oc3c(F)cc(Nc4cc(Cl)nc(N)n4)cc3F)c12 17

Return Population Pyknosed Nuclei (%) for the following compound: C=CC(=O)Nc1cccc(Oc2nc(Nc3ccc(N4CCN(C)CC4)cc3OC)ncc2Cl)c1 4

Return Population Pyknosed Nuclei (%) for the following compound: CCc1nn(CCCN2CCN(c3cccc(Cl)c3)CC2)c(=O)n1CCOc1ccccc1.Cl [NEFAZODONE HYDROCHLORIDE] 20

Return Population Pyknosed Nuclei (%) for the following compound: CCCSc1nc(N[C@@H]2C[C@H]2c2ccc(F)c(F)c2)c2nnn([C@@H]3C[C@H](OCCO)[C@@H](O)[C@H]3O)c2n1 12

Note: attention shifts to another entry.
Return Population Pyknosed Nuclei (%) for the following compound: CNC(=O)c1ccc(Nc2ncc(C(F)(F)F)c(NCc3nccnc3N(C)S(C)(=O)=O)n2)cc1 10

###

Measured Population Apoptotic (%) values are reported for all entries that follow.
System: U2OS
Test: Multiplex assay against U2OS
Type: toxicity, cell-based
Details: human, 48 h, 1 µM, compound concentration 1 uM, replicate 2
Give the value in % but do not write % after it.

Write down measured Population Apoptotic (%) (U2OS) for this molecule. CC1=C(C(=O)Nc2cc3cn[nH]c3cc2F)C(c2ccc(C(F)(F)F)cc2)CC(=O)N1 (stereo not given) 75

Write down measured Population Apoptotic (%) (U2OS) for this molecule. CC(C)(C)NC[C@H](O)COc1nsnc1N1CCOCC1 [TIMOLOL] 42

Write down measured Population Apoptotic (%) (U2OS) for this molecule. CC(C)OC(=O)N1CCC(Oc2ncnc3c2cnn3-c2ccc(S(C)(=O)=O)cc2F)CC1 30

Write down measured Population Apoptotic (%) (U2OS) for this molecule. Cc1ccc(C)c(Oc2ccncc2C(=O)N2CCN(C3CC3)c3ccccc32)c1 36

Write down measured Population Apoptotic (%) (U2OS) for this molecule. CCc1ccc(OCc2ccccc2C(=O)Nc2ccc3nc(C)cc(N)c3c2)cc1.Cl 100

Write down measured Population Apoptotic (%) (U2OS) for this molecule. COc1ccc(-c2ccc3ncc4c(c3c2)n(-c2ccc(N3CCNCC3)c(C(F)(F)F)c2)c(=O)n4C)cn1.O=C(O)/C=C\C(=O)O [BGT-226] 100

Write down measured Population Apoptotic (%) (U2OS) for this molecule. COC(=O)C1=C(C)NC(C)=C(C(=O)OCCCN2CCC(c3ccccc3)(c3ccccc3)CC2)[C@H]1c1cccc([N+](=O)[O-])c1 [NIGULDIPINE] 85

Write down measured Population Apoptotic (%) (U2OS) for this molecule. Cc1cccc(CN2CCN(C(c3ccccc3)c3ccc(Cl)cc3)CC2)c1.Cl.Cl (stereo not given) 0

Write down measured Population Apoptotic (%) (U2OS) for this molecule. O=c1cc(N2CCOCC2)oc2c(-c3cccc4c3sc3ccccc34)cccc12 18

Write down measured Population Apoptotic (%) (U2OS) for this molecule. CNC(=O)Nc1ccc(-c2nc(N3CC4CCC(C3)O4)c3cnn(C4CCC5(CC4)OCCO5)c3n2)cc1 36
